Data origin: patent US11339383B2

Assay: Thermostability of GDP-bound mini G proteins by differential scanning fluorimetry (DSF)
Type: physicochemical
Details: mini-G protein alone, GDP-bound
Quantity Kind: Stability measured by DSF (°C)
Write it as a number; the unit °C goes unstated.

Mini Gs393 (protein, N-terminal His tag, TEV site; MINI GS393) MGHHHHHHENLYFQGIEKQLQKDKQVYRATHRLLLLGADNSGKSTIVKQMRILHGGSGGSGGTSGIFETKFQVDKVNFHMFDVGGQRDERRKWIQCFNDVTAIIFVVDSSDYNRLQEALNDFKSIWNNRWLRTISVILFLNKQDLLAEKVLAGKSKIEDYFPEFARYTTPEDATPEPGEDPRVTRAKYFIRDEFLRISTASGDGRHYCYPHFTCAVDTENARRIFNDCRDIIQRMHLRQYELL	65.3

Request: Can you look up the measured Stability measured by DSF of mini-Gs/o_16: mini-Gs/o1 chimera construct 16; SEQ ID NO:139 (protein, miniGs/o_16) MGHHHHHHENLYFQGNSKTEDQRNEEKAQREANKKIEKQLQKDKQVYRATHRLLLLGADNSGKSTIVKQMRILHGGSGGSGGTSGIFETKFQVDKVNFHMFDVGGQRDERRKWIQCFNDVTAIIFVVDSSDYNRLQEALNLFKSIWNNRWLRTISVILFLNKQDLLAEKVLAGKSKIEDYFPEFARYTTPEDATPEPGEDPRVTRAKYFIRDEFLRISTASGDGRHYCYPHFTCAVDTENARRIFNDVTDIIIAMNLRGCGLY for me?
Result: 69.0
